- Tested on: NCI-H2087
- assay: relative viability (nuclei count vs DMSO), 5 days (fraction); higher = more cells survive
- settings: first compound 20 µM
# note: boundary value 0.6 maps to label 0; relative viability below it maps to label 1

Some entries whose results are on file:
- molecule: "Cc1csc(=NC2CCCCC2)n1/N=C/c1ccc(O)c(O)c1O [MIM1] + CS(=O)(=O)N1CCN(Cc2cc3nc(-c4cccc5[nH]ncc45)nc(N4CCOCC4)c3s2)CC1 [Pictilisib] (partner 1 µM)"
  group_label: "label 1"
- molecule: "Cc1csc(=NC2CCCCC2)n1/N=C/c1ccc(O)c(O)c1O [MIM1] + Nc1nc2[nH]cc(CCc3ccc(C(=O)N[C@@H](CCC(=O)O)C(=O)O)cc3)c2c(=O)[nH]1 [Pemetrexed] (partner 0.2 µM)"
  group_label: "label 0"
- molecule: "Cc1csc(=NC2CCCCC2)n1/N=C/c1ccc(O)c(O)c1O [MIM1] + CC(=O)Nc1cccc(-n2c(=O)n(C3CC3)c(=O)c3c(Nc4ccc(I)cc4F)n(C)c(=O)c(C)c32)c1 [Trametinib] (partner 0.02 µM)"
  group_label: "label 1"
- molecule: "Cc1csc(=NC2CCCCC2)n1/N=C/c1ccc(O)c(O)c1O [MIM1] + COc1cc2c(Oc3ccc(NC(=O)C4(C(=O)Nc5ccc(F)cc5)CC4)cc3F)ccnc2cc1OCCCN1CCOCC1 [Foretinib] (partner 0.25 µM)"
  group_label: "label 0"

Consider now this further molecule.
Query: Consider the molecule Cc1csc(=NC2CCCCC2)n1/N=C/c1ccc(O)c(O)c1O [MIM1] + CC(=O)c1c(C)c2cnc(Nc3ccc(N4CCNCC4)cn3)nc2n(C2CCCC2)c1=O [Palbociclib] (partner 0.5 µM) . Is its relative viability strictly less than 0.6?
Response: label 1

----------
Readings of relative viability for the listed compounds
- Tested on: NCI-H2347
- assay: relative viability (nuclei count vs DMSO), 5 days (fraction); higher = more cells survive
- settings: first compound 2 µM
Reply with just the number.

Study these solved cases before continuing.
- compound: "Cc1csc(=NC2CCCCC2)n1/N=C/c1ccc(O)c(O)c1O [MIM1] + Cc1nc(Nc2ncc(C(=O)Nc3c(C)cccc3Cl)s2)cc(N2CCN(CCO)CC2)n1 [Dasatinib] (partner 0.075 µM)"
  recorded_number: 0.291
- compound: "CN1CCN(CCOc2cc(OC3CCOCC3)c3c(Nc4c(Cl)ccc5c4OCO5)ncnc3c2)CC1 [Saracatinib] + CC(=O)Nc1cccc(-n2c(=O)n(C3CC3)c(=O)c3c(Nc4ccc(I)cc4F)n(C)c(=O)c(C)c32)c1 [Trametinib] (partner 0.02 µM)"
  recorded_number: 0.277

Consider the additional compound presented here.
Query: // returns reported relative viability for input Cc1csc(=NC2CCCCC2)n1/N=C/c1ccc(O)c(O)c1O [MIM1] + O=C(CCCCCCC(=O)Nc1ccccc1)NO [Vorinostat] (partner 1 µM)
Response: 0.652

----------
- Test system: NCI-H1915
- assay: relative viability (nuclei count vs DMSO), 5 days (fraction); higher = more cells survive
- settings: first compound 0.02 µM
# note: boundary value 0.7 maps to Condition not met; relative viability below it maps to Condition met

Some entries whose results are on file:
- compound: "CN1CCN(CCOc2cc(OC3CCOCC3)c3c(Nc4c(Cl)ccc5c4OCO5)ncnc3c2)CC1 [Saracatinib] + COc1cccc2cc(-c3nc([C@H]4CC[C@H](C(=O)O)CC4)n4ncnc(N)c34)[nH]c12 [OSI-027] (partner 0.5 µM)"
  target_of_assay: "NCI-H1915"
  group_label: "Condition met"
- compound: "CN1CCN(CCOc2cc(OC3CCOCC3)c3c(Nc4c(Cl)ccc5c4OCO5)ncnc3c2)CC1 [Saracatinib] + CCNC(=O)c1noc(-c2cc(C(C)C)c(O)cc2O)c1-c1ccc(CN2CCOCC2)cc1 [Luminespib] (partner 0.01 µM)"
  target_of_assay: "NCI-H1915"
  group_label: "Condition not met"

Consider now this further compound.
Query: Consider the compound CCNC(=O)c1noc(-c2cc(C(C)C)c(O)cc2O)c1-c1ccc(CN2CCOCC2)cc1 [Luminespib] + CS(=O)(=O)CCNCc1ccc(-c2ccc3ncnc(Nc4ccc(OCc5cccc(F)c5)c(Cl)c4)c3c2)o1 [Lapatinib] (partner 2 µM) . Is its relative viability strictly less than 0.7?
Response: Condition not met

----------
- Test system: NCI-H1915
- assay: relative viability (nuclei count vs DMSO), 5 days (fraction); higher = more cells survive
- settings: first compound 0.001 µM
Readings of relative viability for the listed molecules

Study these solved cases before continuing.
- molecule: "Cc1cn(-c2cc(NC(=O)c3ccc(C)c(Nc4nccc(-c5cccnc5)n4)c3)cc(C(F)(F)F)c2)cn1 [Nilotinib] + COc1cc2c(Oc3ccc(NC(=O)C4(C(=O)Nc5ccc(F)cc5)CC4)cc3F)ccnc2cc1OCCCN1CCOCC1 [Foretinib] (partner 0.25 µM)"
  relative viability: 0.966
- molecule: "Cc1cn(-c2cc(NC(=O)c3ccc(C)c(Nc4nccc(-c5cccnc5)n4)c3)cc(C(F)(F)F)c2)cn1 [Nilotinib] + CC1(C)CCC(c2ccc(Cl)cc2)=C(CN2CCN(c3ccc(C(=O)NS(=O)(=O)c4ccc(N[C@H](CCN5CCOCC5)CSc5ccccc5)c(S(=O)(=O)C(F)(F)F)c4)cc3)CC2)C1 [Navitoclax] (partner 0.5 µM)"
  relative viability: 0.764

Query: // returns reported relative viability for input Cc1cn(-c2cc(NC(=O)c3ccc(C)c(Nc4nccc(-c5cccnc5)n4)c3)cc(C(F)(F)F)c2)cn1 [Nilotinib] + CS(=O)(=O)N1CCN(Cc2cc3nc(-c4cccc5[nH]ncc45)nc(N4CCOCC4)c3s2)CC1 [Pictilisib] (partner 1 µM)
Response: 0.958

Query: Subsequent entry: Cc1cn(-c2cc(NC(=O)c3ccc(C)c(Nc4nccc(-c5cccnc5)n4)c3)cc(C(F)(F)F)c2)cn1 [Nilotinib] + C[C@@H](Oc1cc(-c2cnn(C3CCNCC3)c2)cnc1N)c1c(Cl)ccc(F)c1Cl [Crizotinib] (partner 1 µM)
Response: 0.73

Query: Subsequent entry: Cc1cn(-c2cc(NC(=O)c3ccc(C)c(Nc4nccc(-c5cccnc5)n4)c3)cc(C(F)(F)F)c2)cn1 [Nilotinib] + O=C(CCCCCCC(=O)Nc1ccccc1)NO [Vorinostat] (partner 1 µM)
Response: 0.454

----------
- System: NCI-H727
- assay: relative viability (nuclei count vs DMSO), 5 days (fraction); higher = more cells survive
- settings: first compound 0.6325 µM
Readings of relative viability for the listed compounds
Reply with just the number.

Query: Can you look up relative viability on NCI-H727 for Cc1csc(=NC2CCCCC2)n1/N=C/c1ccc(O)c(O)c1O [MIM1] + CS(=O)(=O)N1CCN(Cc2cc3nc(-c4cccc5[nH]ncc45)nc(N4CCOCC4)c3s2)CC1 [Pictilisib] (partner 1 µM) ?
Response: 0.352

Query: Subsequent entry: Cc1csc(=NC2CCCCC2)n1/N=C/c1ccc(O)c(O)c1O [MIM1] + CS(=O)(=O)CCNCc1ccc(-c2ccc3ncnc(Nc4ccc(OCc5cccc(F)c5)c(Cl)c4)c3c2)o1 [Lapatinib] (partner 2 µM)
Response: 0.969

Query: Subsequent entry: Cc1csc(=NC2CCCCC2)n1/N=C/c1ccc(O)c(O)c1O [MIM1] + Cc1cc(Nc2cc(N3CCN(C)CC3)nc(Sc3ccc(NC(=O)C4CC4)cc3)n2)n[nH]1 [Tozasertib] (partner 0.1 µM)
Response: 0.536

----------
- Tested on: LXF-289
- assay: relative viability (nuclei count vs DMSO), 5 days (fraction); higher = more cells survive
- settings: first compound 0.06325 µM
# note: boundary value 0.5 maps to 0; relative viability below it maps to 1

- compound: "CCNC(=O)c1noc(-c2cc(C(C)C)c(O)cc2O)c1-c1ccc(CN2CCOCC2)cc1 [Luminespib] + CC1(C)CCC(c2ccc(Cl)cc2)=C(CN2CCN(c3ccc(C(=O)NS(=O)(=O)c4ccc(N[C@H](CCN5CCOCC5)CSc5ccccc5)c(S(=O)(=O)C(F)(F)F)c4)cc3)CC2)C1 [Navitoclax] (partner 0.5 µM)"
  group_label: 0
- compound: "CCNC(=O)c1noc(-c2cc(C(C)C)c(O)cc2O)c1-c1ccc(CN2CCOCC2)cc1 [Luminespib] + Cc1nc(NC(=O)N2CCC[C@H]2C(N)=O)sc1-c1ccnc(C(C)(C)C(F)(F)F)c1 [Alpelisib] (partner 2 µM)"
  group_label: 0
- compound: "CCNC(=O)c1noc(-c2cc(C(C)C)c(O)cc2O)c1-c1ccc(CN2CCOCC2)cc1 [Luminespib] + CC(=O)Nc1cccc(-n2c(=O)n(C3CC3)c(=O)c3c(Nc4ccc(I)cc4F)n(C)c(=O)c(C)c32)c1 [Trametinib] (partner 0.02 µM)"
  group_label: 0
- compound: "CCNC(=O)c1noc(-c2cc(C(C)C)c(O)cc2O)c1-c1ccc(CN2CCOCC2)cc1 [Luminespib] + Cc1nc(Nc2ncc(C(=O)Nc3c(C)cccc3Cl)s2)cc(N2CCN(CCO)CC2)n1 [Dasatinib] (partner 0.075 µM)"
  group_label: 1

Consider now this further compound.
Query: Consider the compound CCNC(=O)c1noc(-c2cc(C(C)C)c(O)cc2O)c1-c1ccc(CN2CCOCC2)cc1 [Luminespib] + C[C@@H](Oc1cc(-c2cnn(C3CCNCC3)c2)cnc1N)c1c(Cl)ccc(F)c1Cl [Crizotinib] (partner 1 µM) . Is its relative viability strictly less than 0.5?
Response: 1
